System: four different genotype enterovirus 71 (EV71) strains
Experiment: CPE assay, summary over the four EV71 strains
Format: cell-based
Conditions: Enterovirus A, EV71, read-out: IC50 values against all tested EV71 strains
Parameter: IC50

Consider the compound shown here: COc1ccc2cc3[n+](cc2c1OCC(=O)OCc1ccccc1)CCc1cc2c(cc1-3)OCO2 What is its recorded IC50? 7.12 to 14.8 µM

###

I'd appreciate it if you could supply pIC50 values for the items below.
Test system: EV71 BrCr strain (VR-1775, genotype A)
Assay: CPE inhibition assay for anti-EV71, BrCr strain
Assay type: cell-based, enterovirus 71 (EV71)
Details: Enterovirus A, EV71; Vero cells; CPE; calculated on the organic part; n = 3; read-out: BrCr Strain IC50
Answers are plain numbers, as −log10 of the molar value.

Completed entries (count: 2):
Smi: COc1cc2c(cc1OC)-c1cc3ccc(OC)c(OCC(=O)c4ccc(C)cc4)c3c[n+]1CC2
Parameter: pIC50
Numeric Result: 4.35
//
Smi: COc1cc2c(cc1OCC(=O)c1ccc(C(F)(F)F)cc1)CC[n+]1cc3c(OC)c(OC)ccc3cc1-2
Parameter: pIC50
Numeric Result: 4.60

Now look at this one.
Consider the compound shown here: COc1cc2c(cc1OC(=O)OCc1ccccc1)CC[n+]1cc3c(OC)c(OC)ccc3cc1-2 What is its recorded pIC50? 4.08
